The origin of these recorded values is the antibiotic and cytotoxicity screens of Wong et al. (2023).

Tested on: HSkMC (human skeletal muscle cells)
assay.name: cytotoxicity call (relative viability < 0.9)
setup.conditions: 10 µM
The whole screen tested about 39,000 compounds, of which about 1,500 (3.8%) were called active. For the sample, actives were picked, then their nearest neighbours and some compounds at random.
measurement.label: cytotoxicity call

* C[C@H]1CN([C@@H](C)CO)C(=O)Cc2cc(NC(=O)Nc3ccc4c(c3)OCO4)ccc2O[C@H]1CN(C)Cc1ccc(C(F)(F)F)cc1 | inactive
* C[C@H](CO)N1C[C@H](C)[C@@H](CN(C)Cc2ccc(Cl)c(Cl)c2)Oc2c(NC(=O)Nc3cccc4ccccc34)cccc2C1=O | active
* C[C@@H]1CN([C@H](C)CO)S(=O)(=O)c2ccc(-c3cncnc3)cc2O[C@H]1CN(C)C(=O)c1cccc(F)c1 | inactive
* C[C@H](CO)N1C[C@H](C)[C@@H](CN(C)C(=O)Nc2ccc(C(F)(F)F)cc2)Oc2ncc(-c3ccc(C#N)cc3)cc2C1=O | inactive
* C[C@H]1CN([C@@H](C)CO)C(=O)c2cc(NC(=O)C3CC3)ccc2O[C@H]1CN(C)Cc1ccc2c(c1)OCO2 | inactive
* C[C@@H]1CN([C@@H](C)CO)C(=O)c2cc(NC(=O)Nc3ccc4c(c3)OCO4)ccc2O[C@@H](C)CCCCO[C@@H]1CN(C)Cc1ccc(C(F)(F)F)cc1 | inactive
* C[C@H](CO)N1C[C@H](C)[C@@H](CN(C)Cc2ccc(Cl)c(Cl)c2)Oc2c(NC(=O)Nc3ccccc3)cccc2C1=O | active
* C[C@@H]1CN([C@@H](C)CO)C(=O)Cc2cc(NC(=O)Nc3ccc4c(c3)OCO4)ccc2O[C@@H]1CN(C)Cc1ccc(C(F)(F)F)cc1 | inactive
* C[C@@H]1CN([C@H](C)CO)C(=O)c2cc(NC(=O)Nc3ccc(C(F)(F)F)cc3)ccc2O[C@@H]1CN(C)Cc1ccc(Oc2ccccc2)cc1 | active
* C[C@H]1CN([C@@H](C)CO)C(=O)c2cc(NC(=O)Nc3ccc(C(F)(F)F)cc3)ccc2O[C@@H]1CN(C)Cc1ccc(Oc2ccccc2)cc1 | inactive
* C[C@H]1CN([C@@H](C)CO)C(=O)Cc2cc(NC(=O)Nc3ccc(C(F)(F)F)cc3)ccc2O[C@H]1CN(C)Cc1ccc(Oc2ccccc2)cc1 | active
* C[C@H](CO)N1C[C@H](C)[C@@H](CN(C)S(=O)(=O)c2cn(C)cn2)OCc2cn(nn2)CCCC1=O | inactive
* O=C(C[C@@H]1CC[C@H]2[C@@H](COC[C@@H](O)CN2C(=O)Nc2cccc(F)c2)O1)NCCCN1CCOCC1 | inactive
* C[C@@H]1CN([C@@H](C)CO)C(=O)c2cccc(NC(=O)Nc3cccc4ccccc34)c2O[C@@H]1CN(C)Cc1ccc(Cl)c(Cl)c1 | inactive
* Cc1noc(C)c1NC(=O)N(C)C[C@@H]1Oc2ccc(NS(C)(=O)=O)cc2CC(=O)N([C@H](C)CO)C[C@H]1C | inactive
* C[C@@H]1CN([C@@H](C)CO)C(=O)Cc2cc(NC(=O)Nc3ccc4c(c3)OCO4)ccc2O[C@H]1CN(C)Cc1ccc(C(F)(F)F)cc1 | inactive
* C[C@@H]1CN([C@H](C)CO)C(=O)c2cc(NS(=O)(=O)c3cccs3)ccc2O[C@@H]1CN(C)S(=O)(=O)c1cccs1 | inactive
* C[C@H](CO)N1C[C@H](C)[C@@H](CN(C)Cc2ccc(C(F)(F)F)cc2)Oc2ccc(NC(=O)Nc3ccc4c(c3)OCO4)cc2CC1=O | active
* C[C@@H]1CN([C@H](C)CO)C(=O)Cc2cc(NC(=O)Nc3ccc4c(c3)OCO4)ccc2O[C@H]1CN(C)Cc1ccc(C(F)(F)F)cc1 | active
* C[C@H]1CN([C@@H](C)CO)C(=O)c2cccc(NC(=O)Nc3cccc4ccccc34)c2O[C@H]1CN(C)Cc1ccc(Cl)c(Cl)c1 | inactive
* C[C@@H]1CN([C@@H](C)CO)C(=O)c2cccc(NC(=O)Nc3ccccc3)c2O[C@@H]1CN(C)Cc1ccc(Cl)c(Cl)c1 | inactive
* C[C@H](CO)N1C[C@H](C)[C@H](CN(C)Cc2ccc(Oc3ccccc3)cc2)Oc2ccc(NC(=O)Nc3ccc(C(F)(F)F)cc3)cc2C1=O | active
* C[C@@H](Oc1cc(-n2cnc3ccc(CN4CCN(C)CC4)cc32)sc1C(N)=O)c1ccccc1C(F)(F)F | active
* C[C@@H]1CN([C@@H](C)CO)C(=O)c2cccc(NS(=O)(=O)c3cn(C)cn3)c2O[C@H]1CN(C)C(=O)Nc1ccc2c(c1)OCO2 | inactive
* C=CC(=O)N[C@H]1CCCN(CC)C1 | inactive
* C[C@H](CO)N1C[C@H](C)[C@H](CN(C)Cc2ccc(Oc3ccccc3)cc2)Oc2ccc(NC(=O)Nc3ccc(C(F)(F)F)cc3)cc2CC1=O | active
* C[C@H](CO)N1C[C@H](C)[C@@H](CN(C)Cc2ccc(Oc3ccccc3)cc2)Oc2ccc(NC(=O)Nc3ccc(C(F)(F)F)cc3)cc2CC1=O | active
* C[C@@H]1CN([C@H](C)CO)C(=O)c2cc(NC(=O)Nc3ccc(C(F)(F)F)cc3)ccc2O[C@H]1CN(C)Cc1ccc(Oc2ccccc2)cc1 | inactive
